biological target: human NEP (Homo sapiens, UniProt P08473); construct: 1182-ZN; test: In vitro enzyme inhibition assay at human NEP (Assay 1); conditions: recombinant enzyme, fluorogenic peptide substrate, 37° C.
Sequence (P08473 whole entry): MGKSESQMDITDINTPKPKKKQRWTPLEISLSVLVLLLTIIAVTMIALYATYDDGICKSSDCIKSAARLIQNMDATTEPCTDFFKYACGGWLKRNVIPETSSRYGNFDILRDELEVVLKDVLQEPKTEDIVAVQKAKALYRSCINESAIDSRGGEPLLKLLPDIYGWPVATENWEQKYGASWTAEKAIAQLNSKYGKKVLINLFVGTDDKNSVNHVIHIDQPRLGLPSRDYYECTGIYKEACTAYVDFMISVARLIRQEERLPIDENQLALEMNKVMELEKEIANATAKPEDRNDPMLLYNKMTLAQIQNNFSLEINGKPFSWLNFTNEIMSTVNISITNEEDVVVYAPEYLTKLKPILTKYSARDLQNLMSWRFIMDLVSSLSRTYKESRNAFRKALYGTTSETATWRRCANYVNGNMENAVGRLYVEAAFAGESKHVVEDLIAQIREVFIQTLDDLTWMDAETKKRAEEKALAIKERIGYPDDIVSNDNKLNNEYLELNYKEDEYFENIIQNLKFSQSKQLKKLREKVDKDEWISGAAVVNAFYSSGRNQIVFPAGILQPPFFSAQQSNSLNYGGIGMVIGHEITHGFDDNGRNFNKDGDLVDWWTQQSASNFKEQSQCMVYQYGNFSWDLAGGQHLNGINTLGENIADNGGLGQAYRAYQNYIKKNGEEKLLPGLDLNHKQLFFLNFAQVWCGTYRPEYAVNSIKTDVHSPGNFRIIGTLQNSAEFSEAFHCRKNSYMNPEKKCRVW
Reported Ki values for the following molecules.

// solved cases for Ki follow
Consider the molecule shown here: Cc1c(Cl)cc(Cl)cc1-c1ccc(CN(C[C@H](O)C(=O)O)NC(=O)c2cc(O)no2)cc1 [Example 8-28] What is its recorded Ki? 12.6 to 100 nM

Which Ki is listed for O=C(NCCO)c1cc(C(=O)NN(Cc2ccc(-c3ccccc3)cc2)C[C@@H](O)C(=O)O)[nH]n1 [Example 2-2] ? 1.26 to 10 nM

Next:
Fill blank: measured Ki of the molecule CC(C)(O)c1cc(C(=O)NN(Cc2ccc(-c3cc(Cl)ccc3F)cc2)C[C@@H](O)C(=O)O)[nH]n1 [Example 8-40] is ____. ≤ 1 nM

# lookup: Ki of Cc1cc(Cl)cc(-c2ccc(CN(C[C@H](O)C(=O)O)NC(=O)c3cc(O)no3)cc2)c1F [Example 8-23] 1.26 to 10 nM

###

The entries below come with measured Ki values attached.
Molecular target: human NEP (Homo sapiens, UniProt P08473)
Construct: 1182-ZN
Assay: In vitro enzyme inhibition assay at human NEP (Assay 1)
Conditions: recombinant enzyme, fluorogenic peptide substrate, 37° C.
Protocol: In Vitro Assays for the Quantitation of Inhibitor Potencies (IC50) at Human and Rat NEP, and Human ACE The inhibitory activities of compounds at human and rat neprilysin (EC 3.4.24.11; NEP) and human angiotensin converting enzyme (ACE) were determined using in vitro assays as described below. […] Plates were read on a fluorometer with excitation and emission wavelengths set to 320 nm and 405 nm, respectively. […]

Below: 3 compounds and their reported Ki.
Tell me the measured Ki of `CC(C)c1cc(C(=O)NN(Cc2ccc(-c3cc(Cl)ccc3F)cc2)C[C@@H](O)C(=O)O)nn1CC(=O)O` , please. 1.26 to 10 nM

Which Ki is listed for `Cc1ccc(Cl)cc1-c1ccc(CN(C[C@@H](O)C(=O)O)NC(=O)c2cc(O)no2)cc1` ? ≤ 1 nM

So what does the record say about Ki for `O=C(NN(Cc1ccc(-c2ccccc2)cc1)C[C@@H](O)C(=O)O)c1cc(C(=O)N2CCCC2)n[nH]1` ? 1.26 to 10 nM

---
Requested field: Ki. Item: `O=C(NN(Cc1ccc(-c2ccccc2)cc1)C[C@H](O)C(=O)O)c1nnc[nH]1` 126 to 1000 nM

###

Target: human NEP (Homo sapiens)
Construct: 1182-ZN
Test: In vitro enzyme inhibition assay at human NEP (Assay 1)
Conditions: recombinant enzyme, fluorogenic peptide substrate, 37° C.
Method: In Vitro Assays for the Quantitation of Inhibitor Potencies (IC50) at Human and Rat NEP, and Human ACE The inhibitory activities of compounds at human and rat neprilysin (EC 3.4.24.11; NEP) and human angiotensin converting enzyme (ACE) were determined using in vitro assays as described below. […] Plates were read on a fluorometer with excitation and emission wavelengths set to 320 nm and 405 nm, respectively. […]
pKi: −log10 of the molar value.
recorded endpoint: pKi

Which measured pKi value corresponds to COc1ccc(Cl)cc1-c1ccc(CN(C[C@@H](O)C(=O)O)NC(=O)c2cc(O)no2)cc1 [Example 8-2] ? ≥ 9.00

Which pKi value is on record for O=C(NN(Cc1ccc(-c2cccc(Cl)c2)cc1)C[C@@H](O)C(=O)O)c1cc(-c2ccccn2)n[nH]1 [Example 4-21] ? 8.00 to 8.90

Given O=C(NN(Cc1ccc(-c2cc(Cl)ccc2F)cc1)C[C@@H](O)C(=O)O)c1cc(-c2ccccc2F)no1 [Example 8-18] , state its recorded pKi. ≥ 9.00

Give its pKi value. Item: O=C(NN(Cc1ccc(-c2cccc(Cl)c2)cc1)C[C@@H](O)C(=O)O)c1cc(C(=O)N2CC[C@@H](O)C2)n[nH]1 [Example 4-14] ≥ 9.00

###

biological target: human NEP (Homo sapiens, UniProt P08473); construct: purchased R&D Systems, Minneapolis, Minn; 1182-ZN; experiment: In vitro enzyme inhibition assay at human NEP (Assay 1); format: biochemical; conditions: recombinant enzyme, fluorogenic peptide substrate, 37° C.
pKi: −log10 of the molar value.
// reported pKi for each item listed

Here's what some known entries look like.
pKi for `CCCc1cc(C(=O)NN(Cc2ccc(-c3cc(Cl)ccc3F)cc2)C[C@@H](O)C(=O)O)on1` ? ≥ 9.00

Field request: pKi | item: `O=C(NN(Cc1ccc(-c2cc(Cl)ccc2F)cc1)C[C@@H](O)C(=O)O)c1ccc(=O)[nH]n1` ≥ 9.00

Look up pKi: `O=C(NN(Cc1ccc(-c2cc(Cl)ccc2Cl)cc1)C[C@@H](O)C(=O)O)c1nnn[nH]1` ≥ 9.00

Need pKi of `CCOc1cc(C(=O)NN(Cc2ccc(-c3cc(Cl)ccc3F)cc2)C[C@@H](O)C(=O)O)n[nH]1` , thanks. 8.00 to 8.90

# get_value(readout='pKi', item= `O=C(NN(Cc1ccc(-c2cc(Cl)ccc2F)cc1)C[C@@H](O)C(=O)O)c1cc(-c2ccccc2Cl)no1` ) ≥ 9.00

Continuing:
Please give the measured pKi for this molecule: `COc1ccc(F)cc1-c1ccc(CN(C[C@@H](O)C(=O)O)NC(=O)c2cc(O)no2)cc1` 8.00 to 8.90

Any idea what its pKi is? The molecule is `O=C(NN(Cc1ccc(-c2ccccc2)cc1)C[C@@H](O)C(=O)O)c1cc(C(=O)N2CC=CC2)n[nH]1` 8.00 to 8.90

###

Catalogue of pKi readings, one per entry.
biological target: human NEP (Homo sapiens, UniProt P08473); construct: 1182-ZN; experiment: In vitro enzyme inhibition assay at human NEP (Assay 1); conditions: recombinant enzyme, fluorogenic peptide substrate, 37° C.
pKi: −log10 of the molar value.

Sample answers from the record:
Entry under review: `COc1ccccc1-c1cc(C(=O)NN(Cc2ccc(-c3cc(Cl)ccc3F)cc2)C[C@@H](O)C(=O)O)on1` . Reported pKi? ≥ 9.00

Any idea what pKi was measured for `O=C(NN(Cc1ccc(-c2cc(Cl)ccc2F)cc1)C[C@@H](O)C(=O)O)c1cc(-c2cccc(F)c2)no1` ? ≥ 9.00

Consider the compound shown here: `O=C(NN(Cc1ccc(-c2cccc(F)c2)cc1)C[C@@H](O)C(=O)O)c1cc(O)no1` What is its recorded pKi? 8.00 to 8.90

More entries:
I am curious: what pKi value has been reported for `O=C(NN(Cc1ccc(-c2cc(Cl)ccc2Cl)cc1)C[C@@H](O)C(=O)O)c1cn(O)nn1` ? ≥ 9.00

Which pKi is reported for this compound? `O=C(NN(Cc1ccc(-c2cc(Cl)ccc2F)cc1)C[C@@H](O)C(=O)O)c1cc(O)n(-c2ccccc2F)n1` 8.00 to 8.90

Bench note: what pKi did `O=C(NN(Cc1ccc(-c2ccccc2Cl)cc1)C[C@@H](O)C(=O)O)c1cc(O)no1` show? 8.00 to 8.90

Could you tell me which pKi is on file for `O=C(NN(Cc1ccc(-c2cccc(Cl)c2)cc1)C[C@@H](O)C(=O)O)c1cnn[nH]1` ? 8.00 to 8.90

###

target: human NEP (Homo sapiens, UniProt P08473); construct: 1182-ZN; assay: In vitro enzyme inhibition assay at human NEP (Assay 1); conditions: recombinant enzyme, fluorogenic peptide substrate, 37° C.
Below is a list of entries, each paired with its recorded Ki value.

The following molecules have reported results that may help.
Find the recorded Ki belonging to `Cc1ccc(Cl)cc1-c1ccc(CN(C[C@@H](O)C(=O)O)NC(=O)c2nnn[nH]2)cc1` and report it. ≤ 1 nM

Form field: reported Ki of `O=C(NN(Cc1ccc(-c2cccc(Cl)c2O)cc1)C[C@@H](O)C(=O)O)c1cc(O)no1` 1.26 to 10 nM

Returns the measured Ki for the input molecule. Input: `O=C(NN(Cc1ccc(-c2cccc(Cl)c2)cc1)C[C@@H](O)C(=O)O)c1cc(-c2ccccc2Cl)n[nH]1` ≤ 1 nM

---
Fill blank: measured Ki of the molecule `O=C(NN(Cc1ccc(-c2cc(Cl)ccc2F)cc1)C[C@@H](O)C(=O)O)c1nn(-c2cccc(Cl)c2)c(=O)[nH]1` is ____. ≤ 1 nM

###

A collection of compounds and their measured Ki
Target: human NEP (Homo sapiens)
Construct: 1182-ZN
Assay: In vitro enzyme inhibition assay at human NEP (Assay 1)
Details: recombinant enzyme, fluorogenic peptide substrate, 37° C.
Method: In Vitro Assays for the Quantitation of Inhibitor Potencies (IC50) at Human and Rat NEP, and Human ACE The inhibitory activities of compounds at human and rat neprilysin (EC 3.4.24.11; NEP) and human angiotensin converting enzyme (ACE) were determined using in vitro assays as described below. […] Plates were read on a fluorometer with excitation and emission wavelengths set to 320 nm and 405 nm, respectively. […]

Recorded results for 3 compounds are shown here.
What value of Ki has been recorded for this entry: `COc1cc(C(=O)NN(Cc2ccc(-c3cccc(Cl)c3)cc2)C[C@@H](O)C(=O)O)on1` 1.26 to 10 nM

Report Ki for `O=C(NN(Cc1ccc(-c2cccc(Cl)c2)cc1)C[C@@H](O)C(=O)O)c1nc(O)n[nH]1` please. 1.26 to 10 nM

Return reported Ki; argument: `O=C(O)Cn1nc(C(=O)NN(Cc2ccc(-c3cc(Cl)ccc3F)cc2)C[C@@H](O)C(=O)O)cc1C1CC1` 1.26 to 10 nM

Next:
Quick check: Ki of `O=C(NN(Cc1ccc(-c2cccc(Cl)c2)cc1)C[C@@H](O)C(=O)O)c1cc(-c2cnccn2)n[nH]1` ? 1.26 to 10 nM

// query Ki value for entry `O=C(NN(Cc1ccc(-c2cc(Cl)ccc2F)cc1)C[C@@H](O)C(=O)O)c1cc(F)c2nn[nH]c2c1` ≤ 1 nM

Value lookup for Ki; key = `O=C(O)c1cc(C(=O)NN(Cc2ccc(-c3ccccc3)cc2)C[C@@H](O)C(=O)O)[nH]n1` ≤ 1 nM

GET /values?readout=Ki&item= `CC(C)c1cc(C(=O)NN(Cc2ccc(-c3cc(Cl)ccc3F)cc2)C[C@@H](O)C(=O)O)on1` ≤ 1 nM

Record request: Ki value, item `CC(C)c1cc(C(=O)NN(Cc2ccc(-c3cc(Cl)ccc3F)cc2)C[C@@H](O)C(=O)O)[nH]n1` ≤ 1 nM

Can you share its Ki? I mean this compound: `O=C(NN(Cc1ccc(-c2ccccc2)cc1)C[C@H](O)C(=O)O)c1cnc2[nH]nnc2c1` 126 to 1000 nM

Requested read-out: Ki. Entry: `O=C(O)c1cc(C(=O)NN(Cc2ccc(-c3cccc(Cl)c3)cc2)C[C@@H](O)C(=O)O)nc(O)n1` ≤ 1 nM

I'd like to know its Ki. The compound in question is `CC(C)(O)c1cc(C(=O)NN(Cc2ccc(-c3cccc(Cl)c3)cc2)C[C@@H](O)C(=O)O)[nH]n1` 1.26 to 10 nM
